B1: F1*; the commonest letter at each place (parent)
chain: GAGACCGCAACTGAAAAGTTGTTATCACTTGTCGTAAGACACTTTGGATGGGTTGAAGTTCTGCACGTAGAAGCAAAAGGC

variants of: B1; assay: fraction ligated after 30 min (ligated reads / total reads); higher = more ligase activity; details: with F1*sub RNA substrate (template-directed ligation), 42 °C
measured property: fraction ligated
# respond with the number and nothing more

Previously resolved entries follow.
{"columns": ["variant name", "measurement"],
 "data": [
  ["T44A G55C", 0.795],
  ["T32G A39G", 0.819],
  ["T23G A48G", 0.788],
  ["G31T A57C", 0.789],
  ["A37C A48G", 0.795]
]}

Req: // query fraction ligated value for entry A41G C42G
Resp: 0.803

Req: Looking for the measured fraction ligated of C26T A39C , can you help?
Resp: 0.789

Req: Need fraction ligated of A41C G55A , thanks.
Resp: 0.804

Req: Which value of fraction ligated has been reported for A37T G55C in the records?
Resp: 0.8

Req: Given the entry G31A A41T , report its measured fraction ligated.
Resp: 0.81

Req: So what's the measured fraction ligated for this one? T29A T44G
Resp: 0.812

Req: // query fraction ligated value for entry A41C A57T
Resp: 0.785
